src = patent US20220033501A1

- assay_target: T1, monkey TIM-3 on CHOK1 stable cell line (CHOK1-cTIM-3) (monkey)
- T1 chain: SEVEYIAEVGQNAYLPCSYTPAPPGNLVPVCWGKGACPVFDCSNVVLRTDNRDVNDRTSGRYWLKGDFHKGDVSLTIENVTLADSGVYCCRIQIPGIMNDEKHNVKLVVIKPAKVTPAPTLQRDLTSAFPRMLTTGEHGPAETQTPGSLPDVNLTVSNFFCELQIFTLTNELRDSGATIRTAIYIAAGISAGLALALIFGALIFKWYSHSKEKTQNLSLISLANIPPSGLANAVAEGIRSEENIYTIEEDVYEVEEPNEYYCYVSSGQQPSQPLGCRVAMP
- test_name: FACS, CHOK1-cTIM-3 cells, 8 nM antibody
The binders listed here are annotated with their Mean fluorescence intensity.
Give only the figure.

Example entries and their recorded answers appear below.
| binder | Mean fluorescence intensity |
| --- | --- |
| 7A4F10 fully human TIM-3 antibody (human IgG4, kappa) (antibody, V domains shown) VH: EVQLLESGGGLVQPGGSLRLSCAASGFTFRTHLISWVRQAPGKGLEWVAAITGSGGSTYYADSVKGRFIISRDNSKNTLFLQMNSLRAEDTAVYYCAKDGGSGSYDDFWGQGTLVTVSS VL: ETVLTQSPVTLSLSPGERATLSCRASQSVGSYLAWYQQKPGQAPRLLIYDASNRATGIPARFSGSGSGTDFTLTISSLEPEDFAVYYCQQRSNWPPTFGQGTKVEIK | 325 |
| 39E5H1 fully human TIM-3 antibody (human IgG4, kappa) (antibody, V domains shown) VH: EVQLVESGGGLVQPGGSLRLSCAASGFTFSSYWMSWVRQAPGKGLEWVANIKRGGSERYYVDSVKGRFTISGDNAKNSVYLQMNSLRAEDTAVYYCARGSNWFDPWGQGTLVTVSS VL: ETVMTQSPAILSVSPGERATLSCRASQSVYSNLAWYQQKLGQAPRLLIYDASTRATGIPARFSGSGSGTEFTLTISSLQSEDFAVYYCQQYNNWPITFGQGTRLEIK | 349 |

# evaluate next
Param item = 18D2H2 fully human TIM-3 antibody (human IgG4, kappa) (antibody, V domains shown) VH: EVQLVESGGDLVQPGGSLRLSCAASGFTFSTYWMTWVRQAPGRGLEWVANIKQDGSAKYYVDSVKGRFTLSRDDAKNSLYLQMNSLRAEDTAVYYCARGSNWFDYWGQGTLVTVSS VL: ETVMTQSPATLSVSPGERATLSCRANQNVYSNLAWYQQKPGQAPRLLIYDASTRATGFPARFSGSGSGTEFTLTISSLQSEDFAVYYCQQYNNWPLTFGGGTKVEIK ; retrieve measured Mean fluorescence intensity.
475
